measurement description: Absorption and fluorescence (photophysical properties) in solvent and solid state
Format: physicochemical
condition: Solid
measured parameter: τ (fluorescence lifetime) (ns)

Solved entries:
smiles repr	value reported
COc1c(/C=C(\C#N)c2ccc(-c3ccccc3)cc2)ccc2cc(N(C)C)ccc12	1.42
COc1c(/C=C(\C#N)c2ccc(Br)cc2)ccc2cc(N(C)C)ccc12	4.43

A: COc1c(/C=C(\C#N)c2cc(C(F)(F)F)cc(C(F)(F)F)c2)ccc2cc(N(C)C)ccc12
B: COc1c(/C=C(\C#N)c2ccc(-c3ccncc3)cc2)ccc2cc(N(C)C)ccc12
For this pair, A and B , which shows a numerically higher τ (fluorescence lifetime)? Response format: the label of the selected entry.
A
